Recorded solubility, one value per entry.
# Test name: Compound solubility in water
# Type: physicochemical
Result type: solubility (µM)

[[record]]
compound = "CC1(C)CCCCN1C(=O)NCCCc1ccccc1"
result_type = "solubility"
recorded_number = 23.4

[[record]]
compound = "CCCCNC(=O)N1CCC2(CCCCO2)CC1(C)C (stereo not shown)"
result_type = "solubility"
recorded_number = 32

[[record]]
compound = "COCCNC(=O)N1c2ccccc2CCC1(C)C"
result_type = "solubility"
recorded_number = 28.7

[[record]]
compound = "CC1(C)CC(F)(F)CCN1C(=O)NCCCC1(C(F)(F)F)CC1"
result_type = "solubility"
recorded_number = 21.4

[[record]]
compound = "CC1(C)CC2(CCCCO2)CCN1C(=O)NCCCCC1CC1 (stereo not shown)"
result_type = "solubility"
recorded_number = 16.5

[[record]]
compound = "O=C(NCCCc1ccccc1)N1CCCC12CCCC2"
result_type = "solubility"
recorded_number = 19.4

[[record]]
compound = "O=C(NCCc1ccccc1)N1CCCCC12CCC2"
result_type = "solubility"
recorded_number = 17.5

